Activity, No BP, DF-2500000 for assorted binders
# target or system: T1, IL-18 receptors on HEK-Blue IL-18 reporter cells (UniProt Q13478 19-541; O95256 20-599, limits assumed)
# T1 sequence (looked up) 1: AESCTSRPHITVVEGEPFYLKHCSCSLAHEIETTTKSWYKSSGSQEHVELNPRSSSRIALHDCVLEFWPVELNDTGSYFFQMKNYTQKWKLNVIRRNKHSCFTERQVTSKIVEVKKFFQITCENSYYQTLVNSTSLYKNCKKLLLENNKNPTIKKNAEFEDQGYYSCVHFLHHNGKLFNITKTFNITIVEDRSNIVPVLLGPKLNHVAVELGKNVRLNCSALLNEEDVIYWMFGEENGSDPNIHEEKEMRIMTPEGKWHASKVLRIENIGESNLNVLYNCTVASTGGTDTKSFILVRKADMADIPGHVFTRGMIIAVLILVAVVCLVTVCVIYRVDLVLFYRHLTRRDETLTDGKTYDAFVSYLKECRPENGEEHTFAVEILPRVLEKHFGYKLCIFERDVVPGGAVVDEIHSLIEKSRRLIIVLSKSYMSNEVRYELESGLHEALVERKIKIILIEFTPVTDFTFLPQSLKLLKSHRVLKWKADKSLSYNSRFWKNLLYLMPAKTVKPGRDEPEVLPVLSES
# T1 sequence (looked up) 2: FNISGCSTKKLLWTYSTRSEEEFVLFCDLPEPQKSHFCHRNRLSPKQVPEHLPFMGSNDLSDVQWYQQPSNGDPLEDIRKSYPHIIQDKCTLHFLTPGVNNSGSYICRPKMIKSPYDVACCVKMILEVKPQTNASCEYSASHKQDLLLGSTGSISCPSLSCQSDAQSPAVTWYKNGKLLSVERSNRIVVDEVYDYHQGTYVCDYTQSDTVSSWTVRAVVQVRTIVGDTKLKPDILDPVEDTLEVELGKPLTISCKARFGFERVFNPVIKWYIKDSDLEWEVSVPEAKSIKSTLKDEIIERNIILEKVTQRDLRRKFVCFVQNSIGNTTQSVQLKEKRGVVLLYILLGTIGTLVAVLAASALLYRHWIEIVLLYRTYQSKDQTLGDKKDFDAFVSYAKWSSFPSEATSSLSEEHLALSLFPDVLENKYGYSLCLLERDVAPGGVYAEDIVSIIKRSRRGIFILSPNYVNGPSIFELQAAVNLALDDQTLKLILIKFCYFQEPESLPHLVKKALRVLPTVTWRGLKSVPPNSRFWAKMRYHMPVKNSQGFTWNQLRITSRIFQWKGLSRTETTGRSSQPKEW
# protocol summary: cell-based or functional assay
observable: Activity, No BP, DF-2500000

{"columns": ["binder", "recorded measurement"],
 "data": [
  ["IL-18 variant G3P, E6S, K53N, D54Y, S55P, T63I, N91K, R104H (ligand) YFPKLSSKLSVIRNLNDQVLFIDQGNRPLFEDMTDSDMRDNAPRTIFIISMYNYPQPRGMAVIISVKSEKISTLSSENKIISFKEMNPPDKIKDTKSDIIFFQHSVPGHDNKMQFESSSYEGYFLASEKERDLFKLILKKEDELGDRSIMFTVQNED", 0.07],
  ["IL-18 variant G3L, E6Q, D54Y, S55P, T63S, N91S, R104Q (ligand) YFLKLQSKLSVIRNLNDQVLFIDQGNRPLFEDMTDSDMRDNAPRTIFIISMYKYPQPRGMAVSISVKSEKISTLSSENKIISFKEMNPPDSIKDTKSDIIFFQQSVPGHDNKMQFESSSYEGYFLASEKERDLFKLILKKEDELGDRSIMFTVQNED", 0.37],
  ["IL-18 variant G3D, E6G, K53G, D54A, T63S, N91Y, R104Q (ligand) YFDKLGSKLSVIRNLNDQVLFIDQGNRPLFEDMTDSDMRDNAPRTIFIISMYGASQPRGMAVSISVKSEKISTLSSENKIISFKEMNPPDYIKDTKSDIIFFQQSVPGHDNKMQFESSSYEGYFLASEKERDLFKLILKKEDELGDRSIMFTVQNED", 0.21],
  ["IL-18 variant G3Q, E6D, K53S, D54I, S55E, T63S, N91S, R104Q (ligand) YFQKLDSKLSVIRNLNDQVLFIDQGNRPLFEDMTDSDMRDNAPRTIFIISMYSIEQPRGMAVSISVKSEKISTLSSENKIISFKEMNPPDSIKDTKSDIIFFQQSVPGHDNKMQFESSSYEGYFLASEKERDLFKLILKKEDELGDRSIMFTVQNED", 0.07],
  ["IL-18 variant G3Q, E6K, D54S, S55P, T63S, N91S, R104Q (ligand) YFQKLKSKLSVIRNLNDQVLFIDQGNRPLFEDMTDSDMRDNAPRTIFIISMYKSPQPRGMAVSISVKSEKISTLSSENKIISFKEMNPPDSIKDTKSDIIFFQQSVPGHDNKMQFESSSYEGYFLASEKERDLFKLILKKEDELGDRSIMFTVQNED", 1.4],
  ["IL-18 variant G3S, E6G, D54V, S55K, T63S, N91Y, R104T (ligand) YFSKLGSKLSVIRNLNDQVLFIDQGNRPLFEDMTDSDMRDNAPRTIFIISMYKVKQPRGMAVSISVKSEKISTLSSENKIISFKEMNPPDYIKDTKSDIIFFQTSVPGHDNKMQFESSSYEGYFLASEKERDLFKLILKKEDELGDRSIMFTVQNED", 1.26],
  ["IL-18 variant G3Q, E6G, D54N, S55H, T63V, N91M, R104T (ligand) YFQKLGSKLSVIRNLNDQVLFIDQGNRPLFEDMTDSDMRDNAPRTIFIISMYKNHQPRGMAVVISVKSEKISTLSSENKIISFKEMNPPDMIKDTKSDIIFFQTSVPGHDNKMQFESSSYEGYFLASEKERDLFKLILKKEDELGDRSIMFTVQNED", 1.01]
]}
